Data provenance: PubChem BioAssay AID1963873

Tested on: 276233-004-R-J1-PDC KRAS spheroids with HUVEC/MSC, viability
Assay: Anticancer human tumor 276233-004-R-J1-PDC patient-derived colon adenocarcinoma cell line growth inhibition [KRAS2]
Conditions: second compound 1 µM; first compound 0.000316 µM; stronger effect = lower value
Reported viability, T/C is given for each of the following compounds.

{"compound": "CC(=O)Nc1cccc(-n2c(=O)n(C3CC3)c(=O)c3c(Nc4ccc(I)cc4F)n(C)c(=O)c(C)c32)c1 + C=CC(=O)N1CCN(c2nc(OCC3CCCN3C)nc3c2CCN(c2cccc4cccc(C)c24)C3)CC1CC#N", "testedOn": "276233-004-R-J1-PDC KRAS spheroids with HUVEC/MSC, viability", "viability, T/C / %": 95.9}
{"compound": "Cn1ncnc1[C@H]1c2n[nH]c(=O)c3cc(F)cc(c23)N[C@@H]1c1ccc(F)cc1 + C=CC(=O)N1CCN(c2nc(OCC3CCCN3C)nc3c2CCN(c2cccc4cccc(C)c24)C3)CC1CC#N", "testedOn": "276233-004-R-J1-PDC KRAS spheroids with HUVEC/MSC, viability", "viability, T/C / %": 99}
{"compound": "CC(=O)Nc1cccc(-n2c(=O)n(C3CC3)c(=O)c3c(Nc4ccc(I)cc4F)n(C)c(=O)c(C)c32)c1 + COc1cc2nc(C)nc(NC(C)c3cc(N)cc(C(F)(F)F)c3)c2cc1OC1CCOC1", "testedOn": "276233-004-R-J1-PDC KRAS spheroids with HUVEC/MSC, viability", "viability, T/C / %": 72.6}
{"compound": "CN(C)C/C=C/C(=O)Nc1cc2c(Nc3ccc(F)c(Cl)c3)ncnc2cc1O[C@H]1CCOC1 + C=CC(=O)N1CCN(c2nc(=O)n(-c3c(C)ccnc3C(C)C)c3nc(-c4c(O)cccc4F)c(F)cc23)C(C)C1", "testedOn": "276233-004-R-J1-PDC KRAS spheroids with HUVEC/MSC, viability", "viability, T/C / %": 103}
{"compound": "Cn1ncnc1[C@H]1c2n[nH]c(=O)c3cc(F)cc(c23)N[C@@H]1c1ccc(F)cc1 + COc1cc2nc(C)nc(NC(C)c3cc(N)cc(C(F)(F)F)c3)c2cc1OC1CCOC1", "testedOn": "276233-004-R-J1-PDC KRAS spheroids with HUVEC/MSC, viability", "viability, T/C / %": 83.3}
{"compound": "Cn1ncnc1[C@H]1c2n[nH]c(=O)c3cc(F)cc(c23)N[C@@H]1c1ccc(F)cc1 + C=CC(=O)N1CCN(c2nc(=O)n(-c3c(C)ccnc3C(C)C)c3nc(-c4c(O)cccc4F)c(F)cc23)C(C)C1", "testedOn": "276233-004-R-J1-PDC KRAS spheroids with HUVEC/MSC, viability", "viability, T/C / %": 98.6}
{"compound": "CN(C)C/C=C/C(=O)Nc1cc2c(Nc3ccc(F)c(Cl)c3)ncnc2cc1O[C@H]1CCOC1 + COc1cc2nc(C)nc(NC(C)c3cc(N)cc(C(F)(F)F)c3)c2cc1OC1CCOC1", "testedOn": "276233-004-R-J1-PDC KRAS spheroids with HUVEC/MSC, viability", "viability, T/C / %": 86.1}
{"compound": "CC(=O)Nc1cccc(-n2c(=O)n(C3CC3)c(=O)c3c(Nc4ccc(I)cc4F)n(C)c(=O)c(C)c32)c1 + CNCc1ccccc1-c1csc(C(C)Nc2nc(C)nc3cc(OC)c(OC)cc23)c1", "testedOn": "276233-004-R-J1-PDC KRAS spheroids with HUVEC/MSC, viability", "viability, T/C / %": 56.5}
{"compound": "CN(C)C/C=C/C(=O)Nc1cc2c(Nc3ccc(F)c(Cl)c3)ncnc2cc1O[C@H]1CCOC1 + C=CC(=O)N1CCN(c2nc(OCC3CCCN3C)nc3c2CCN(c2cccc4cccc(C)c24)C3)CC1CC#N", "testedOn": "276233-004-R-J1-PDC KRAS spheroids with HUVEC/MSC, viability", "viability, T/C / %": 84.8}
{"compound": "Cn1ncnc1[C@H]1c2n[nH]c(=O)c3cc(F)cc(c23)N[C@@H]1c1ccc(F)cc1 + CNCc1ccccc1-c1csc(C(C)Nc2nc(C)nc3cc(OC)c(OC)cc23)c1", "testedOn": "276233-004-R-J1-PDC KRAS spheroids with HUVEC/MSC, viability", "viability, T/C / %": 56.7}
{"compound": "CC(C)n1nc(-c2ccc3oc(N)nc3c2)c2c(N)ncnc21 + C=CC(=O)N1CCN(c2nc(OCC3CCCN3C)nc3c2CCN(c2cccc4cccc(C)c24)C3)CC1CC#N", "testedOn": "276233-004-R-J1-PDC KRAS spheroids with HUVEC/MSC, viability", "viability, T/C / %": 82.8}
{"compound": "CC(=O)Nc1cccc(-n2c(=O)n(C3CC3)c(=O)c3c(Nc4ccc(I)cc4F)n(C)c(=O)c(C)c32)c1 + CC1OCC2(CCN(c3cnc(Sc4ccnc(N)c4Cl)c(N)n3)CC2)C1N", "testedOn": "276233-004-R-J1-PDC KRAS spheroids with HUVEC/MSC, viability", "viability, T/C / %": 55.4}
{"compound": "CN(C)C/C=C/C(=O)Nc1cc2c(Nc3ccc(F)c(Cl)c3)ncnc2cc1O[C@H]1CCOC1 + CC1OCC2(CCN(c3cnc(Sc4ccnc(N)c4Cl)c(N)n3)CC2)C1N", "testedOn": "276233-004-R-J1-PDC KRAS spheroids with HUVEC/MSC, viability", "viability, T/C / %": 93.2}
{"compound": "CC(C)n1nc(-c2ccc3oc(N)nc3c2)c2c(N)ncnc21 + CNCc1ccccc1-c1csc(C(C)Nc2nc(C)nc3cc(OC)c(OC)cc23)c1", "testedOn": "276233-004-R-J1-PDC KRAS spheroids with HUVEC/MSC, viability", "viability, T/C / %": 57.9}
{"compound": "Cn1ncnc1[C@H]1c2n[nH]c(=O)c3cc(F)cc(c23)N[C@@H]1c1ccc(F)cc1 + CC1OCC2(CCN(c3cnc(Sc4ccnc(N)c4Cl)c(N)n3)CC2)C1N", "testedOn": "276233-004-R-J1-PDC KRAS spheroids with HUVEC/MSC, viability", "viability, T/C / %": 88.9}
{"compound": "CC(C)n1nc(-c2ccc3oc(N)nc3c2)c2c(N)ncnc21 + CC1OCC2(CCN(c3cnc(Sc4ccnc(N)c4Cl)c(N)n3)CC2)C1N", "testedOn": "276233-004-R-J1-PDC KRAS spheroids with HUVEC/MSC, viability", "viability, T/C / %": 80.9}
{"compound": "CC(C)n1nc(-c2ccc3oc(N)nc3c2)c2c(N)ncnc21 + C=CC(=O)N1CCN(c2nc(=O)n(-c3c(C)ccnc3C(C)C)c3nc(-c4c(O)cccc4F)c(F)cc23)C(C)C1", "testedOn": "276233-004-R-J1-PDC KRAS spheroids with HUVEC/MSC, viability", "viability, T/C / %": 94.4}
{"compound": "CN(C)C/C=C/C(=O)Nc1cc2c(Nc3ccc(F)c(Cl)c3)ncnc2cc1O[C@H]1CCOC1 + CNCc1ccccc1-c1csc(C(C)Nc2nc(C)nc3cc(OC)c(OC)cc23)c1", "testedOn": "276233-004-R-J1-PDC KRAS spheroids with HUVEC/MSC, viability", "viability, T/C / %": 81.4}
{"compound": "CC(=O)Nc1cccc(-n2c(=O)n(C3CC3)c(=O)c3c(Nc4ccc(I)cc4F)n(C)c(=O)c(C)c32)c1 + C=CC(=O)N1CCN(c2nc(=O)n(-c3c(C)ccnc3C(C)C)c3nc(-c4c(O)cccc4F)c(F)cc23)C(C)C1", "testedOn": "276233-004-R-J1-PDC KRAS spheroids with HUVEC/MSC, viability", "viability, T/C / %": 85.5}
{"compound": "CC(C)n1nc(-c2ccc3oc(N)nc3c2)c2c(N)ncnc21 + COc1cc2nc(C)nc(NC(C)c3cc(N)cc(C(F)(F)F)c3)c2cc1OC1CCOC1", "testedOn": "276233-004-R-J1-PDC KRAS spheroids with HUVEC/MSC, viability", "viability, T/C / %": 108}

---

Tested on: 276233-004-R-J1-PDC KRAS spheroids with HUVEC/MSC, viability
Experiment: Anticancer human tumor 276233-004-R-J1-PDC cell line growth inhibition [KRAS2];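 also: cells exposed to agents for seven days before viability read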
Details: curve of first compound; second compound 0.1 µM
The reader will find reported IC50 values listed item by item below.

{"compound": "CC1(C)CCC(CN2CCN(c3ccc(C(=O)NS(=O)(=O)c4ccc(NCC5CCOCC5)c([N+](=O)[O-])c4)c(Oc4cnc5[nH]ccc5c4)c3)CC2)=C(c2ccc(Cl)cc2)C1 + COc1cc2nc(C)nc(NC(C)c3cc(N)cc(C(F)(F)F)c3)c2cc1OC1CCOC1", "testedOn": "276233-004-R-J1-PDC KRAS spheroids with HUVEC/MSC, viability", "IC50": "> 10 µM"}
{"compound": "CC(C)NCC(C(=O)N1CCN(c2ncnc3c2C(C)CC3O)CC1)c1ccc(Cl)cc1 (stereo not given) + CC1OCC2(CCN(c3cnc(Sc4ccnc(N)c4Cl)c(N)n3)CC2)C1N", "testedOn": "276233-004-R-J1-PDC KRAS spheroids with HUVEC/MSC, viability", "IC50": "> 10 µM"}
{"compound": "CC1(C)CCC(CN2CCN(c3ccc(C(=O)NS(=O)(=O)c4ccc(NCC5CCOCC5)c([N+](=O)[O-])c4)c(Oc4cnc5[nH]ccc5c4)c3)CC2)=C(c2ccc(Cl)cc2)C1 + C=CC(=O)N1CCN(c2nc(=O)n(-c3c(C)ccnc3C(C)C)c3nc(-c4c(O)cccc4F)c(F)cc23)C(C)C1", "testedOn": "276233-004-R-J1-PDC KRAS spheroids with HUVEC/MSC, viability", "IC50": "8.94 µM"}
{"compound": "Cn1ncnc1[C@H]1c2n[nH]c(=O)c3cc(F)cc(c23)N[C@@H]1c1ccc(F)cc1 + C=CC(=O)N1CCN(c2nc(=O)n(-c3c(C)ccnc3C(C)C)c3nc(-c4c(O)cccc4F)c(F)cc23)C(C)C1", "testedOn": "276233-004-R-J1-PDC KRAS spheroids with HUVEC/MSC, viability", "IC50": "> 0.1 µM"}
{"compound": "Cn1nccc1Nc1nccc(-c2cc3c(s2)C(C)(C)N(CCN2CCOCC2)C3=O)n1 + C=CC(=O)N1CCN(c2nc(=O)n(-c3c(C)ccnc3C(C)C)c3nc(-c4c(O)cccc4F)c(F)cc23)C(C)C1", "testedOn": "276233-004-R-J1-PDC KRAS spheroids with HUVEC/MSC, viability", "IC50": "> 10 µM"}
